# Tested on: TK-10
# Procedure summary: NCI tumour cell line growth inhibition, 48 h
Active and inactive are the calls of the source. No stated cut-off is given here; in the data, active = GI50 up to about 1.1 µM and inactive = higher.
Output constraint: value belongs to active, inactive

Here's what some known entries look like.
| Molecule | Qualitative label |
| --- | --- |
| CC1CC/C(=C\c2ccc(F)cc2)C2=C1C(c1ccc(F)cc1)NC(=S)N2 (centres undefined) | inactive |
| CC[P+](C)(Cc1ccccc1)c1ccccc1 (centres undefined) | inactive |
| COc1ccc(CCc2ccccc2CC(=O)O)cc1 | inactive |
| [N-]=[N+]=C1C(=O)C2CC3CC(C2)CC1C3 | inactive |
| CC(C)C(C/C=C1\CC(CO)(COC(=O)c2ccccc2)OC1=O)C(C)C (centres undefined) | inactive |
| Nc1ccc(Nc2nc(F)nc(-c3c4ccccc4c4n3CCS4)n2)cc1 | inactive |
| CC(=O)OC1(C#N)CC2OC1C1C2N=NN1C(=O)OC(C)(C)C (centres undefined) | inactive |
| Cn1c2c(c3ccccc31)CCN(CCCCN1CCN(c3ccccc3)CC1)C2=O | inactive |

Continue with the next molecule.
Could you please tell me the result logged for C[C@@H]1C[C@H](O)[C@]2(O)O[C@@H]3C[C@@]4(C=O)[C@@H](CC[C@@H]5[C@@H]4CC[C@]4(C)[C@@H](C6=CC(=O)OC6)CC[C@]54O)C[C@H]3O[C@@H]2O1 [CALOTROPIN] in this assay?
active

====

# System: SN12C
# Procedure summary: NCI tumour cell line growth inhibition, 48 h
Activity calls are given as the source filed them. No stated cut-off is given here; in the data, active = GI50 up to about 1.1 µM and inactive = higher.
Property: GI50

Past entries and their recorded results:
| Molecule | Assayed system | GI50 |
| --- | --- | --- |
| O=C(O)NC(c1ccccc1)C(NC(=O)c1ccccc1)c1ccccc1 (configuration not stated) | SN12C | > 100 µM (inactive) |
| O=C(CCC(=O)Nc1cccc(Cl)c1)CC(=O)c1ccc(F)cc1 | SN12C | > 100 µM (inactive) |
| O=C(O)COc1ccc(C(=O)/C(SS/C(C(=O)c2ccc(OCC(=O)O)c(Cl)c2Cl)=C2\C=C(c3ccc(Br)cc3)SS2)=C2/C=C(c3ccc(Br)cc3)SS2)c(Cl)c1Cl | SN12C | 6.32 µM (inactive) |
| COc1cc(/C=C(\C#N)c2nc3ccccc3o2)ccc1O | SN12C | 34.7 µM (inactive) |
| Cc1cccc2nc3n(c12)C(=O)c1ccccc1-3 | SN12C | > 100 µM (inactive) |

Indicate its recorded GI50; the molecule in question is CC(C)C(C/C=C1\CC(CO)(COC(=O)c2ccccc2)OC1=O)C(C)C (configuration not stated)
17.2 µM (inactive)

Supply GI50 value. Item: `C=CCOc1ccc(C(=N/NC(=O)c2ccccc2)/N=N/c2ccc(C)cc2)cc1OC`
31.7 µM (inactive)

Indicate its recorded GI50; the molecule in question is `OC1=CN=COc2ccccc21`
> 100 µM (inactive)

====

# Test system: SNB-19
# Procedure summary: NCI tumour cell line growth inhibition, 48 h
Activity calls are given as the source filed them. Cut-off read from the data, not from the text of the source: active = GI50 up to about 1.1 µM and inactive = higher.
GI50 values, listed per item

| Molecule | Observed measurement |
| --- | --- |
| CC1=C(NC(=O)C(=O)NNC(=O)c2ccncc2)C(=O)c2ccccc2C1=O | 17.5 µM (inactive) |

// fetch GI50; item: CC1(C(=O)Nc2ccc3ccccc3c2)CC2(C)CC(C)(C1)C(O)NC2=O (stereo unspecified) ; system: SNB-19
> 100 µM (inactive)

Quote SNB-19 GI50 for entry `N#CC1=C(N)N2C(=O)/C(=C/c3ccccc3O)N=C2S1` .
> 100 µM (inactive)

For SNB-19, give the measured GI50 of the entry CC(=O)C1CC2(c3ccccc3)C(=O)c3ccccc3N2O1 (stereo unspecified)
> 100 µM (inactive)

Return reported GI50 for target or system SNB-19, item C=C1C(=O)O[C@@H]2OC3(C)CCC4C(C)CCC1C42OO3 (stereo partly specified) .
14.7 µM (inactive)

# return GI50 of NC(CCCCCP(=O)(O)O)C(=O)O (stereo unspecified) (system: SNB-19)
> 100 µM (inactive)

For SNB-19, give the measured GI50 of the entry CC(C)CC(C(N)=O)C(=O)NC(Cc1ccccc1)NC(=O)CNC(=O)C(C)NC(=O)C(N)Cc1ccc(O)cc1 (stereo unspecified)
> 100 µM (inactive)

# return GI50 of `CC(C)c1cccc(C(C)C)c1NC(=O)CCC(=O)NN` (system: SNB-19)
> 100 µM (inactive)

Enter recorded GI50 with SNB-19 for `O=c1[nH]c(=S)[nH]n1C(=S)n1[nH]c(=S)[nH]c1=O` here.
> 100 µM (inactive)

Give GI50 for `CCOc1ccccc1-c1nc2c(s1)C(=O)c1ccccc1C2=O` tested on SNB-19.
25.8 µM (inactive)

Report value only: GI50, SNB-19, `Cc1cccc2nc3n(c12)C(=O)c1ccccc1-3`
> 100 µM (inactive)

====

# Tested on: CCRF-CEM
# Procedure summary: NCI tumour cell line growth inhibition, 48 h
Calls of active or inactive are those of the source. Rule as the data show it: active = GI50 up to about 1.1 µM and inactive = higher.
Entries annotated with measured GI50

Would you please look over these solved cases?
| Molecule | GI50 |
| --- | --- |
| Cn1c2c(c3ccccc31)CCN(CCCCN1CCN(c3ccccc3)CC1)C2=O | 24.5 µM (inactive) |
| Cn1cc(S(=O)(=O)NC(=O)Nc2ccc(Cl)cc2)c2ccccc21 | > 100 µM (inactive) |

Write down the reported GI50 (system: CCRF-CEM) of `CC(C)c1cccc(C(C)C)c1NC(=O)CCC(=O)NN`
> 100 µM (inactive)

For CCRF-CEM, give GI50 of the listed molecule: C=C1C(=O)O[C@@H]2OC3(C)CCC4C(C)CCC1C42OO3 (stereo partly specified)
1.47 µM (inactive)

Jot down GI50 (CCRF-CEM) of `Cc1cccc(N(CC(=O)O)S(=O)(=O)c2ccccc2)c1` .
> 100 µM (inactive)

Given COC(=O)C(=O)C(C(=O)C(=O)Nc1cccc(OC)c1)c1nc2ccc(Cl)cc2nc1O (stereo unspecified) , report its GI50 on CCRF-CEM.
12.9 µM (inactive)

State the measured GI50 (CCRF-CEM) of Cc1nn(C(=O)c2ccncc2)c2c1C(c1ccccc1O)SC(=N)N2 (stereo unspecified)
> 10 µM (inactive)

Jot down GI50 (CCRF-CEM) of O=C1C=C(c2ccccc2)NC1(c1ccccc1)c1cc(-c2ccccc2)[nH]c1-c1ccccc1 (stereo unspecified) .
> 100 µM (inactive)

Give CCRF-CEM GI50 for the following molecule: `CN1/C(=C\N=O)C(C)(C)N(O)C1(C)C`
> 100 µM (inactive)

Report GI50 on CCRF-CEM for this entry: `COc1ccc(/C=N/N=C(\N)NO)c(OC)c1OC`
20 µM (inactive)

Provide measured GI50 on CCRF-CEM for `Cc1cc(NN)nc2[nH]nc(N)c12` please.
> 100 µM (inactive)

====

The compounds listed here are annotated with their GI50.
# Tested on: SW-620
# Procedure summary: NCI tumour cell line growth inhibition, 48 h
Activity calls are given as the source filed them. No stated cut-off is given here; in the data, active = GI50 up to about 1.1 µM and inactive = higher. Non-standard residues stand in square brackets, D forms with d. Residues, ends and D or L forms follow the SMILES beside them. *: point of attachment. Ac5c = NC1(C(=O)O)CCCC1; Cbz = O=C(OCc1ccccc1)*; Boc = CC(C)(C)OC(=O)*; tBu = CC(C)(C)*

| Compound | GI50 |
| --- | --- |
| O=C1OC[C@@H]2Cc3c([nH]c4ccccc34)[C@@H](c3cc(O)c(O)c(O)c3)N12 | 21.3 µM (inactive) |
| COC(=O)[C@@]1(Cc2ccc(O)cc2)C[C@@H]2Cc3ccccc3N2N1 | > 100 µM (inactive) |
| Cc1cc(C)c2c(c1)CN1CN2Cc2cc(C)cc(C)c21 | 31.5 µM (inactive) |
| CCOC(=O)Cn1c(=O)c2nc(SC)sc2n(-c2ccccc2)c1=S | 50.4 µM (inactive) |
| CC1SC2=NC3=C(c4ccccc4C3=O)C(c3ccc(F)cc3)N2C1=O (centres undefined) | > 100 µM (inactive) |
| COCC(C)(C)/N=C/N1Cc2cc3ccccc3nc2C1 | > 100 µM (inactive) |
| Cc1cccc(N(CC(=O)O)S(=O)(=O)c2ccccc2)c1 | > 100 µM (inactive) |
| CCN(CC)CCNc1n[n+]([O-])c2ccccc2[n+]1[O-] | 11.9 µM (inactive) |
| CCOC(=O)C1=NNC(C(=O)c2ccccc2)C1c1ccccc1 (centres undefined) | 1.75 µM (inactive) |
| CC(C)(C)N/N=C(/Cc1nc2c3c(ccc2nc1O)C(=O)c1ccccc1C3=O)C(=O)NC1=C(Cl)C(=O)c2ccccc2C1=O | 39.3 µM (inactive) |

Write down the reported GI50 (system: SW-620) of O=c1c2ccccc2nc(-c2ccccc2Cl)n1NCC1(O)OCC(O)C(O)C1O (centres undefined)
> 100 µM (inactive)

Name the value of GI50 reported for `O=C(OCc1ccccc1)N1CCCc2c(n(S(=O)(=O)c3ccccc3)c3ccccc23)C1` when tested on SW-620.
> 100 µM (inactive)

Please tell me the measured GI50 for `O=C(/C=C1\Nc2ccc([N+](=O)[O-])cc2N=C1NC12CC3CC(CC(C3)C1)C2)c1ccccc1` ; system: SW-620.
> 10 µM (inactive)

With SW-620 as the test system, provide measured GI50 for this compound: `Nc1ccc(C(=O)N/C(=C\c2ccc3c(c2)OCO3)c2nc3c(O)nc(S)nc3[nH]2)cc1`
> 100 µM (inactive)

GET GI50 where system = SW-620 and item = `CCOc1ccccc1-c1nc2c(s1)C(=O)c1ccccc1C2=O`
8 µM (inactive)

Write GI50 of `CSc1c(C(=O)Nc2ccccc2)c(N)nn1-c1ccccc1` ; system used: SW-620
> 100 µM (inactive)

// fetch GI50; item: CC[P+](C)(Cc1ccccc1)c1ccccc1 (centres undefined) ; system: SW-620
> 100 µM (inactive)

# return GI50 of `C=C1C(=O)O[C@@H]2/C=C(/C)[C@@H](OC(C)=O)C[C@@H](O)/C(C)=C\[C@@H](OC(=O)[C@]3(C)O[C@@H]3C)[C@@H]12` (system: SW-620)
5.98 µM (inactive)

Specify GI50 for COC(=O)C1(NC(=O)C(Cc2ccccc2)NC(=O)C(NC(=O)C(CCCCNC(=O)OC(C)(C)C)NC(=O)C(Cc2c[nH]c3ccccc23)NC(=O)C(Cc2ccccc2)NC(=O)OCc2ccccc2)C(C)OC(C)(C)C)CCCC1 (centres undefined) (Cbz-FWK(Boc)T(tBu)F[Ac5c]-OMe; configuration not given here) , system SW-620.
51.6 µM (inactive)
